# Test system: L. infantum JPCM5 MCAN/ES/98/LLM-87 axenic amastigotes
# Protocol Text: L. infantum axenic amastigote assay (Alamar blue)
# Format: cell-based, Leishmania infantum
# Settings: HeLa CC50 / L. infantum axenic amastigote EC50
Answer each item with its documented S.I (CC50/IC50), L. infantum axenic amastigote.

**Query** Requested read-out: S.I (CC50/IC50), L. infantum axenic amastigote. Entry: Cn1c2ccccc2c2cc(C(=O)N3CCN(c4ccc(Cl)cc4)CC3)nc(-c3ccccc3)c21 [7g]
**Result** >263.2

**Query** Now try Cn1c2ccccc2c2cc(C(=O)N3CCN(c4ccccc4)CC3)nc(-c3ccccc3)c21 [7a] .
**Result** >111.1

**Query** Check COc1ccc(N2CCN(C(=O)c3cc4c5ccccc5n(C)c4c(-c4ccccc4)n3)CC2)cc1 [7d] too.
**Result** >357.1

**Query** Follow-up entry: COc1ccccc1N1CCN(C(=O)c2cc3c4ccccc4n(C)c3c(-c3ccccc3)n2)CC1 [7f]
**Result** >32.7

**Query** Try this compound too: Cc1ccccc1N1CCN(C(=O)c2cc3c4ccccc4n(C)c3c(-c3ccccc3)n2)CC1 [7c]
**Result** >192.3

**Query** Param item: Cn1c2ccccc2c2cc(C(=O)N3CCN(c4ccc(F)cc4)CC3)nc(-c3ccccc3)c21 [7k]
**Result** >33.3

**Query** Moving on to the next compound: Cn1c2ccccc2c2cc(C(=O)N3CCN(c4ccc([N+](=O)[O-])cc4)CC3)nc(-c3ccccc3)c21 [7j]
**Result** >34.2

---

# Tested on: L. donovani LdBOB intracellular amastigotes in PMA differentiated THP-1 cells
# Protocol Text: Intra macrophage L. donovani (amastigote) assay in THP-1 cells
# Format: cell-based, Leishmania donovani
# Settings: HeLa CC50 / L. donovani intracellular amastigote EC50
Experimental Endpoint: S.I (CC50/IC50), L. donovani intracellular amastigote
Answer as a number with no unit attached.

**Query** Form field: reported S.I (CC50/IC50), L. donovani intracellular amastigote of Cn1c2ccccc2c2cc(C(=O)N3CCN(c4ccc(Cl)cc4)CC3)nc(-c3ccccc3)c21
**Result** 79.4

**Query** Please do the same for COc1ccccc1N1CCN(C(=O)c2cc3c4ccccc4n(C)c3c(-c3ccccc3)n2)CC1 as well.
**Result** 42.4

**Query** How about Cn1c2ccccc2c2cc(C(=O)N3CCN(Cc4ccccc4)CC3)nc(-c3ccccc3)c21 ?
**Result** 89.3

**Query** And for Cn1c2ccccc2c2cc(C(=O)N3CCN(c4ccccc4)CC3)nc(-c3ccccc3)c21 ?
**Result** 37.0

**Query** Query Cn1c2ccccc2c2cc(C(=O)N3CCN(c4ccc(F)cc4)CC3)nc(-c3ccccc3)c21 next
**Result** 49.5

**Query** Also need Cn1c2ccccc2c2cc(C(=O)N3CCN(c4ccccn4)CC3)nc(-c3ccccc3)c21 , thanks.
**Result** 34.6

**Query** Try this molecule next: Cn1c2ccccc2c2cc(C(=O)N3CCN(c4ccccc4Cl)CC3)nc(-c3ccccc3)c21
**Result** 22.7

**Query** Same read-out for Cc1ccc(N2CCN(C(=O)c3cc4c5ccccc5n(C)c4c(-c4ccccc4)n3)CC2)cc1 ?
**Result** 63.3

---

# System: L. donovani LdBOB intracellular amastigotes in PMA differentiated THP-1 cells
# Protocol Text: Intra macrophage L. donovani (amastigote) assay in THP-1 cells
# Format: cell-based, Leishmania donovani
# Settings: THP-1 macrophages, 72 h, microscopy readout
Experimental Endpoint: pEC50
// pEC50 here means minus log10 of the molar concentration (mol/L)

**Query** pEC50 for Cc1ccccc1N1CCN(C(=O)c2cc3c4ccccc4n(C)c3c(-c3ccccc3)n2)CC1 [7c] ?
**Result** 5.03

**Query** Cn1c2ccccc2c2cc(C(=O)N3CCN(c4ccccn4)CC3)nc(-c3ccccc3)c21 [7p] , same question.
**Result** 5.10

**Query** Consider next the molecule Cn1c2ccccc2c2cc(C(=O)N3CCN(c4cccc(Cl)c4)CC3)nc(-c3ccccc3)c21 [7h] in the same way.
**Result** 5.11

**Query** And Cc1ccc(N2CCN(C(=O)c3cc4c5ccccc5n(C)c4c(-c4ccccc4)n3)CC2)cc1 [7b] ?
**Result** 5.10

**Query** Record: Cn1c2ccccc2c2cc(C(=O)N3CCN(c4ccncc4)CC3)nc(-c3ccccc3)c21 [7o]
**Result** 5.14

**Query** Proceed to COc1ccc(N2CCN(C(=O)c3cc4c5ccccc5n(C)c4c(-c4ccccc4)n3)CC2)cc1 [7d]
**Result** 5.89

---

# Tested on: L. infantum JPCM5 MCAN/ES/98/LLM-87 promastigotes
# Protocol Text: L. infantum promastigote assay (Alamar blue)
# Assay type: cell-based, Leishmania infantum
# Settings: HeLa CC50 / L. infantum promastigote EC50
Provide the reported S.I (CC50/IC50), L. infantum promastigote of each item.

**Query** Give the measured S.I (CC50/IC50), L. infantum promastigote of Cn1c2ccccc2c2cc(C(=O)N3CCN(c4ccccc4F)CC3)nc(-c3ccccc3)c21 .
**Result** >7.7

**Query** And then Cn1c2ccccc2c2cc(C(=O)N3CCN(Cc4ccccc4)CC3)nc(-c3ccccc3)c21 , what is it?
**Result** >24.5

**Query** Please answer likewise for Cn1c2ccccc2c2cc(C(=O)N3CCN(c4ccc([N+](=O)[O-])cc4)CC3)nc(-c3ccccc3)c21
**Result** >25.3

**Query** One more molecule: Cn1c2ccccc2c2cc(C(=O)N3CCN(c4ccc(F)cc4)CC3)nc(-c3ccccc3)c21
**Result** >29.1

**Query** Similarly, Cn1c2ccccc2c2cc(C(=O)N3CCN(c4ccccn4)CC3)nc(-c3ccccc3)c21 ?
**Result** 5.97

**Query** Same lookup for Cn1c2ccccc2c2cc(C(=O)N3CCN(c4ccccc4Cl)CC3)nc(-c3ccccc3)c21 , please.
**Result** >23.0

**Query** Moving on to the next molecule: Cn1c2ccccc2c2cc(C(=O)N3CCN(c4cccc(Cl)c4)CC3)nc(-c3ccccc3)c21
**Result** >9.8

**Query** Now the molecule Cn1c2ccccc2c2cc(C(=O)N3CCN(c4ccccc4)CC3)nc(-c3ccccc3)c21
**Result** >52.9

---

# System: L. infantum JPCM5 MCAN/ES/98/LLM-87 promastigotes
# Protocol Text: L. infantum promastigote assay (Alamar blue)
# Assay type: cell-based, Leishmania infantum
# Settings: HeLa CC50 / L. infantum promastigote EC50
I'd be grateful if you could share measured S.I (CC50/IC50), L. infantum promastigote for these entries.

**Query** I'm curious: which S.I (CC50/IC50), L. infantum promastigote was measured for COc1cccc(N2CCN(C(=O)c3cc4c5ccccc5n(C)c4c(-c4ccccc4)n3)CC2)c1 tested on L. infantum JPCM5 MCAN/ES/98/LLM-87 promastigotes?
**Result** >6.9

**Query** Let us now turn to Cc1ccccc1N1CCN(C(=O)c2cc3c4ccccc4n(C)c3c(-c3ccccc3)n2)CC1
**Result** >134.0

**Query** Also COc1ccccc1N1CCN(C(=O)c2cc3c4ccccc4n(C)c3c(-c3ccccc3)n2)CC1 ?
**Result** >36.2

**Query** Proceed to COc1ccc(N2CCN(C(=O)c3cc4c5ccccc5n(C)c4c(-c4ccccc4)n3)CC2)cc1
**Result** >314.5

**Query** What about Cn1c2ccccc2c2cc(C(=O)N3CCN(c4cccc(Cl)c4Cl)CC3)nc(-c3ccccc3)c21 ?
**Result** >5.3

**Query** Repeat with Cc1ccc(N2CCN(C(=O)c3cc4c5ccccc5n(C)c4c(-c4ccccc4)n3)CC2)cc1
**Result** >20.5

**Query** Same again, this time with Cn1c2ccccc2c2cc(C(=O)N3CCN(c4ccc(Cl)cc4)CC3)nc(-c3ccccc3)c21
**Result** >340.1

**Query** Same question for Cn1c2ccccc2c2cc(C(=O)N3CCN(c4ccncc4)CC3)nc(-c3ccccc3)c21 please.
**Result** 0.48

---

# System: L. infantum JPCM5 MCAN/ES/98/LLM-87 promastigotes
# Protocol Text: L. infantum promastigote assay (Alamar blue)
# Format: cell-based, Leishmania infantum
# Settings: Leishmania infantum, 72 h, Alamar blue
# label = label 1 if EC50 < 20 µM else label 0

**Query** Consider Cn1c2ccccc2c2cc(C(=O)N3CCN(c4ccc(F)cc4)CC3)nc(-c3ccccc3)c21 . Does its EC50 lie strictly below 20 µM?
**Result** label 1

**Query** Could you do the same for Cn1c2ccccc2c2cc(C(=O)N3CCN(c4cccc(Cl)c4Cl)CC3)nc(-c3ccccc3)c21 , please?
**Result** label 0

**Query** Quick one: Cc1ccc(N2CCN(C(=O)c3cc4c5ccccc5n(C)c4c(-c4ccccc4)n3)CC2)cc1
**Result** label 0

**Query** What about this molecule? CCCCCCCCCCCCCCCCOP(=O)([O-])OCC[N+](C)(C)C [Miltefosine, reference compound]
**Result** label 1

**Query** How about Cn1c2ccccc2c2cc(C(=O)N3CCN(c4ccccn4)CC3)nc(-c3ccccc3)c21 ?
**Result** label 0

**Query** Could you do the same for N=C(N)c1ccc(OCCCCCOc2ccc(C(=N)N)cc2)cc1 [Pentamidine, reference compound] , please?
**Result** label 1

**Query** Note, next up: Cn1c2ccccc2c2cc(C(=O)N3CCN(c4ccccc4F)CC3)nc(-c3ccccc3)c21
**Result** label 0

**Query** Same lookup for COc1ccccc1N1CCN(C(=O)c2cc3c4ccccc4n(C)c3c(-c3ccccc3)n2)CC1 , please.
**Result** label 1

**Query** Next entry: Cn1c2ccccc2c2cc(C(=O)N3CCN(c4ccccc4Cl)CC3)nc(-c3ccccc3)c21
**Result** label 0

**Query** // query: Cc1ccccc1N1CCN(C(=O)c2cc3c4ccccc4n(C)c3c(-c3ccccc3)n2)CC1
**Result** label 1
